- System: SK-LU-1
- Measurement description: relative viability (nuclei count vs DMSO), 5 days (fraction); higher = more cells survive
- Assay context: first compound 0.1581 µM
Observable: relative viability
Answers are plain numbers.

Answered examples (2):
{"Molecule": "COc1cc2nccc(Oc3ccc(NC(=O)Nc4cc(C)on4)c(Cl)c3)c2cc1OC [Tivozanib] + Cc1nc(NC(=O)N2CCC[C@H]2C(N)=O)sc1-c1ccnc(C(C)(C)C(F)(F)F)c1 [Alpelisib] (partner 2 µM)", "System name": "SK-LU-1", "Val": 0.645}
{"Molecule": "Nc1ccn([C@@H]2O[C@H](CO)[C@@H](O)[C@@H]2O)c(=O)n1 [Cytarabine] + CCNC(=O)c1noc(-c2cc(C(C)C)c(O)cc2O)c1-c1ccc(CN2CCOCC2)cc1 [Luminespib] (partner 0.01 µM)", "System name": "SK-LU-1", "Val": 0.185}

Value of relative viability reported for the molecule Nc1ccn([C@@H]2O[C@H](CO)[C@@H](O)[C@@H]2O)c(=O)n1 [Cytarabine] + C[C@@H](Oc1cc(-c2cnn(C3CCNCC3)c2)cnc1N)c1c(Cl)ccc(F)c1Cl [Crizotinib] (partner 1 µM) is 0.605
